Property: protein stability index; scope: individual variants
B1: PLAGL1 (parent)
chain: EKPPSGTKEKKHQCDHCERCFYTR

Variants of: B1
Assay Text: protein stability index of a GFP-peptide fusion (GPS, HEK-293T) (PSI 1-6); higher = more stable;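 also: lentivirally expressed fusions sorted by FACS into six bins by GFP to DsRed ratio, PSI derived from sequencing read proportions per bin multiplied by bin number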
Experimental Conditions: c terminus: a fixed tail appended

Mutant Name	protein stability index
H16D	4.02
P3C	3.98
T23K	3.99
C17D	3.97
K2E	3.9
K2A	3.94
K2P	4.08
E9D	3.96
